Study System: TEM-1 (Class A) β-lactamase (Escherichia coli)
Sequence (P62593 24-286 limits assumed): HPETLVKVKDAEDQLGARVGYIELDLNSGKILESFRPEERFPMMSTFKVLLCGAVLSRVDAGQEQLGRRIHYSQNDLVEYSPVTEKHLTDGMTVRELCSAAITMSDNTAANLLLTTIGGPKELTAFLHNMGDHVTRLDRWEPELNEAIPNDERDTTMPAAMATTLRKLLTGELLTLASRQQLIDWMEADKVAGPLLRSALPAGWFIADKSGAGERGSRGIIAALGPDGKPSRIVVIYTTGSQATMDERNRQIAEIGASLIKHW
Procedure Summary: In vitro enzymatic assay (Nitrocefin)
Condition Label: Nitrocefin 0.1 mM, 1 × PBS pH 7.4, 0.1 mg/mL BSA, read-out: IC50, inhibitory activity on β-lactamase
Protocol: 2) Prepare buffer solution A (1×PBS, pH 7.4, 0.1 mg/mL BSA) for enzymatic assay; 3) The compound mother liquor was 4-fold serial diluted for 11 times with DMSO in a 96-well tip-bottom plate, which was used as a working solution. […] 5) Adding 5 μL Nitrocefin (the final reaction volume was 100 μL), the absorbance OD490 of the reaction solution in the plate was measured by a microplate reader and the result was recorded, the absorbance was measured every minute over 30 minutes; […]
pIC50: −log10 of the molar value.
Measured Attribute: pIC50

In [3]: df
Out[3]:
                         structure_notation  measured_attribute  result_number
0  N=C(N)NOCCONC(=O)[C@@H]1CC[C@@H]2CN1C(=O)N2OS(=O)(=O)O               pIC50           7.41

====

Consider the following compounds and their measured IC50 readings.
Study System: OXA-9 (Class D) β-lactamase (Klebsiella pneumoniae, UniProt P0A3M3)
Sequence (P0A3M3 25-274): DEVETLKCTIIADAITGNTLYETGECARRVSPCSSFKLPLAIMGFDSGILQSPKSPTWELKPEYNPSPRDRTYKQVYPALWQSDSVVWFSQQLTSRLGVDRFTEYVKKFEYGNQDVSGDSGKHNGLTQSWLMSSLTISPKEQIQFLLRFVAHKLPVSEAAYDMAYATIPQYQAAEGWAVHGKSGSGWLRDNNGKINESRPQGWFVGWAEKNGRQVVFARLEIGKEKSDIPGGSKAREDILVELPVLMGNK
Procedure Summary: In vitro enzymatic assay (Nitrocefin)
Measured Attribute: IC50 (µM)

>>> print(df.to_string())
                                   compound                              study_system  measured_attribute  units_of_measure  result_number
0  NC(=O)[C@@H]1CC[C@@H]2CN1C(=O)N2OS(=O)(=O)O [Avibactam, avibactam]  OXA-9 (Class D) β-lactamase (Klebsiella pneumoniae, UniProt P0A3M3)                IC50                µM           3.13
1  N=C(N)NOCCONC(=O)[C@@H]1CC[C@@H]2CN1C(=O)N2OS(=O)(=O)O [Compound 1]  OXA-9 (Class D) β-lactamase (Klebsiella pneumoniae, UniProt P0A3M3)                IC50                µM              5

====

Study System: AmpC-PA (Class C) β-lactamase (Pseudomonas aeruginosa)
Sequence (P24735 27-397): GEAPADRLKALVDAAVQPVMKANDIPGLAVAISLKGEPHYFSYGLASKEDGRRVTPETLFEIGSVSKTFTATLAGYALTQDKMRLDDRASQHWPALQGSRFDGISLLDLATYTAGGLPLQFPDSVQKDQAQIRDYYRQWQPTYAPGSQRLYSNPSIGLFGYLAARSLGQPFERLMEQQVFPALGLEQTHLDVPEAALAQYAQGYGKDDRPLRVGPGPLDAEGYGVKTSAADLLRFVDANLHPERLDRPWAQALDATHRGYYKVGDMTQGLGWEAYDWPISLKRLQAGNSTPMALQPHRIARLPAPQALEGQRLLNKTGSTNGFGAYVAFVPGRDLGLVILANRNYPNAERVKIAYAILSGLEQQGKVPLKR
Procedure Summary: In vitro enzymatic assay (Nitrocefin)
pIC50: −log10 of the molar value.
Measured Attribute: pIC50

In [3]: df
Out[3]:
                                   compound  measured_attribute  result_number
0  N=C(N)NOCCONC(=O)[C@@H]1CC[C@@H]2CN1C(=O)N2OS(=O)(=O)O [Compound 1]               pIC50           7.01

====

Study System: AmpC-EC (Class C) β-lactamase (UniProt P05364)
Procedure Summary: In vitro enzymatic assay (Nitrocefin)
Type: biochemical
Condition Label: Nitrocefin 0.1 mM, 1 × PBS pH 7.4, 0.1 mg/mL BSA, read-out: IC50, inhibitory activity on β-lactamase
Measured Attribute: IC50 (nM)

In [3]: df
Out[3]:
                         structure_notation  result_number
0  N=C(N)NOCCONC(=O)[C@@H]1CC[C@@H]2CN1C(=O)N2OS(=O)(=O)O           20.2
1  NC(=O)[C@@H]1CC[C@@H]2CN1C(=O)N2OS(=O)(=O)O            107
